- System: TSSK3
- Test Conditions: concentration: 1 μM, replicates: in singlicate; n = 1;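 note: KINOMEscan kinase panel screen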
Mark Yes only for %Inh values smaller than 9%; exact matches and larger values are No.

Does CSc1ccc(-c2cc3ncnc(SCC(=O)O)c3s2)cc1 have %Inh strictly under 9%?
Yes

Does COc1ccc(Nc2nccc(N3CCC(NC(=O)Nc4cccc(C(C)=O)c4)C3)n2)cc1 (stereo not shown) have %Inh strictly under 9%?
Yes

---

- System: LATS2
- Test Conditions: concentration: 1 μM, replicates: in singlicate; n = 1
Measurement Label: %Inh (%)
Express the result in % but write the number alone.

// below: answered compounds
[[record]]
compound = "Fc1ccc(-c2ncn(CCCN3CCOCC3)c2-c2cccnc2)cc1 [SB-211743]"
display_unit = "%"
result_number = 0

[[record]]
compound = "Cn1cc(-c2ccc3c(c2)CCN3C(=O)Cc2ccccc2Cl)c2c(N)ncnc21 [GSK2608885]"
display_unit = "%"
result_number = 25

[[record]]
compound = "Cc1ccc(NC(=O)c2ccnc(N3CCN(C)CC3)c2)cc1-c1ccc(C(=O)NCC2CC2)cc1 [GW775604]"
display_unit = "%"
result_number = 0

[[record]]
compound = "COc1cc2c(cc1OCCN1CCN(C)CC1)ncc1c3ccc(C#N)cc3[nH]c21"
display_unit = "%"
result_number = 20


Consider now this further compound.
Under LATS2: %Inh value of Cc1cccc(-c2nc(Nc3ccc4ncsc4c3)c3ccccc3n2)n1 [GW867588] ?
0

---

- System: ADCK3
- Construct: gene CABC1
- Test Conditions: concentration: 1 μM, replicates: in singlicate; n = 1
Please mark MET if the recorded %Inh is equal to or greater than 10%, and NOT MET if it falls below.

Some solved entries appear below for comparison.
[[record]]
compound = "CN(C(=O)c1ccc(-c2cc(-c3c[nH]nc3-c3ccccn3)ccn2)cc1)C1CCOCC1"
discrete_label = "NOT MET"

[[record]]
compound = "O=C(NCCCN1CCOCC1)c1cccc(Nc2nccc(Nc3ccc(Oc4ccccc4)cc3)n2)c1"
discrete_label = "MET"

[[record]]
compound = "Cc1cn2c(=O)cc(N3CCOCC3)nc2n1Cc1cccc(Cl)c1Cl"
discrete_label = "NOT MET"


As a next step, examine the compound that follows.
Can Cc1nnc(-c2ccc3ncc(-c4ccc(S(C)=O)cc4)n3c2)o1 (stereo not drawn) be said to have %Inh at or above 10%?
NOT MET

---

- Tested on: SgK110
- Test Conditions: concentration: 1 μM, replicates: in singlicate; n = 1
Measurement Label: %Inh (%)
Express the result in % but write the number alone.

[[record]]
compound = "O=c1cc(N2CCOCC2)nc2n(Cc3cccc4ccccc34)ccn12 [GSK2333389]"
measurement_label = "%Inh"
result_number = 0

[[record]]
compound = "O=C(Nc1n[nH]c2cc(-c3cccc(F)c3)ccc12)C1CC1 [SB-735464]"
measurement_label = "%Inh"
result_number = 0

[[record]]
compound = "[2H]C([2H])(c1cccc(C(F)(F)F)c1C)n1ccn2c(=O)nc(N3CCOCC3)cc12 [GSK2336394]"
measurement_label = "%Inh"
result_number = 0

[[record]]
compound = "N#Cc1c(N2CCOCC2)sc(-c2ccn[nH]2)c1-c1ccc(Cl)cc1"
measurement_label = "%Inh"
result_number = 0

[[record]]
compound = "COc1ccc(Nc2nccc(N3CCC(NC(=O)Nc4cccc(C(C)=O)c4)C3)n2)cc1 (stereo not drawn) [GSK1379731]"
measurement_label = "%Inh"
result_number = 0


Consider now this further compound.
Entry C[C@@H](Oc1cc(-n2cnc3ccc(NC(=O)NC(C)(C)C)cc32)sc1C(N)=O)c1ccccc1Cl [GSK346294] has what %Inh?
0

---

- Tested on: RIPK2
- Test Conditions: concentration: 1 μM, replicates: in singlicate; n = 1
Measurement Label: %Inh
Phrase the answer as number then unit, nothing more needed.

[[record]]
compound = "NS(=O)(=O)c1cccc(-c2ccc3ncc(N4CCOCC4)nc3c2)c1"
measurement_label = "%Inh"
result = "13%"

[[record]]
compound = "O=c1cc(N2CCOCC2)nc2n(Cc3cccc4ccccc34)ccn12"
measurement_label = "%Inh"
result = "0%"

[[record]]
compound = "Cl.Oc1cccc(Nc2ccnc3cc(-c4ccncc4)ccc23)c1"
measurement_label = "%Inh"
result = "83%"

[[record]]
compound = "Cn1cc(-c2ccc3c(c2)CCN3C(=O)Cc2ccccc2Cl)c2c(N)ncnc21"
measurement_label = "%Inh"
result = "99.4%"

[[record]]
compound = "Fc1ccc(-c2nn3c(OCC(F)(F)F)cccc3c2-c2ccncc2)cc1"
measurement_label = "%Inh"
result = "43%"


Entry O=C(NCCCN1CCOCC1)c1cccc(Nc2nccc(Nc3ccc(Oc4ccccc4)cc3)n2)c1 has what %Inh?
100%

Entry Cc1nnc(-c2ccc(C)c(-c3ccc(C(=O)Nc4ccc(NS(C)(=O)=O)cc4)cc3)c2)o1 has what %Inh?
14%

---

- Test system: EPHA8
- Test Conditions: concentration: 1 μM, replicates: in singlicate; n = 1
// %Inh lookup, one value per entry
Express the result in % but write the number alone.

Entry O=C(NCCNc1ccnc(Nc2ccc(F)cc2)n1)c1cc2ccccc2s1 has what %Inh?
18

Entry Cc1nnc(-c2ccc(C)c(-c3ccc(C(=O)Nc4ccc(NS(C)(=O)=O)cc4)cc3)c2)o1 has what %Inh?
3

Entry O=C(Nc1n[nH]c2cc(-c3cccc(F)c3)ccc12)C1CC1 has what %Inh?
13

Entry O=C(NCCNc1ccnc(Nc2ccc(F)cc2)n1)Nc1ccccc1F has what %Inh?
21

---

- Test system: PIKFYVE
- Test Conditions: concentration: 1 μM, replicates: in singlicate; n = 1
Measurement Label: %Inh (%)
Express the result in % but write the number alone.

// below: answered compounds
[[record]]
compound = "Cc1ccc(NC(=O)c2ccnc(N3CCN(C)CC3)c2)cc1-c1ccc(C(=O)NCC2CC2)cc1"
system_name = "PIKFYVE"
display_unit = "%"
result_number = 0

[[record]]
compound = "Cc1cn2c(=O)cc(N3CCOCC3)nc2n1Cc1cccc(Cl)c1Cl"
system_name = "PIKFYVE"
display_unit = "%"
result_number = 50

[[record]]
compound = "NS(=O)(=O)c1cccc(-c2ccc3nccc(-c4cccc(S(N)(=O)=O)c4)c3c2)c1"
system_name = "PIKFYVE"
display_unit = "%"
result_number = 21


Entry COc1ccc(Nc2nccc(N3CCC(NC(=O)Nc4cccc(C(C)=O)c4)C3)n2)cc1 (stereo not drawn) has what %Inh?
0

Entry COC(=O)Nc1nc2cc(Oc3ccc(NC(=O)Nc4cc(F)ccc4F)cc3)ccc2[nH]1.Cl has what %Inh?
31

Entry CCc1nc(-c2cccc(C)c2)c(-c2ccnc(NCc3ccccc3)c2)s1 has what %Inh?
0

Entry O=C(NOCC1CC1)c1ccc(F)c(F)c1Nc1ccc(I)cc1Cl has what %Inh?
40

Entry CNc1ncnc2[nH]ncc12 has what %Inh?
11

Entry CN1c2ccc(NCc3ccc(F)cc3)cc2-c2c(cnn2C)S1(=O)=O has what %Inh?
32

---

- Tested on: CAMK1D
- Test Conditions: concentration: 1 μM, replicates: in singlicate; n = 1
Measurement Label: %Inh (%)
Express the result in % but write the number alone.

Entry COc1cc(Nc2nccc(N3CCC(NC(=O)c4cccc(NC(C)=O)c4)C3)n2)cc(OC)c1OC (stereo not shown) has what %Inh?
27

Entry Cc1nnc(-c2ccc3occ(-c4ccc(C(C)O)cc4)c3c2)o1 (stereo not shown) has what %Inh?
0

Entry Cc1nnc(-c2ccc(C)c(-c3ccc(C(=O)Nc4ccc(NS(C)(=O)=O)cc4)cc3)c2)o1 has what %Inh?
2

Entry Cl.Oc1cccc(Nc2ccnc3cc(-c4ccncc4)ccc23)c1 has what %Inh?
5

Entry CCn1cnc2c(N)ncnc21 has what %Inh?
10

Entry O=c1cc(N2CCOCC2)nc2n(Cc3cccc(C(F)(F)F)c3)ccn12 has what %Inh?
6

Entry CC(C)(C)n1cnc2c(N)ncnc21 has what %Inh?
1

Entry CCc1nc(-c2cccc(C)c2)c(-c2ccnc(NCc3ccccc3)c2)s1 has what %Inh?
6

Entry O=C(NCCNc1ccnc(Nc2ccc(F)cc2)n1)Nc1ccccc1F has what %Inh?
0

Entry Cc1cccc(-c2nc(-c3ccc(S(C)(=O)=O)cc3)sc2-c2ccncc2)c1 has what %Inh?
15

Entry COc1ccc(COc2cc(-n3cnc4ccccc43)sc2C(N)=O)cc1 has what %Inh?
6

---

- Test system: MAP4K2
- Test Conditions: concentration: 1 μM, replicates: in singlicate; n = 1
Measurement Label: %Inh (%)
Express the result in % but write the number alone.

// below: answered molecules
[[record]]
molecule = "NS(=O)(=O)c1cccc(-c2ccc3nccc(-c4cccc(S(N)(=O)=O)c4)c3c2)c1 [GW867253]"
measurement_label = "%Inh"
result_number = 9

[[record]]
molecule = "O=C1Cc2cc(Nc3nc(NCc4cccc(S(=O)(=O)C(F)(F)F)c4)ncc3C(F)(F)F)ccc2N1"
measurement_label = "%Inh"
result_number = 0

[[record]]
molecule = "Cl.Oc1cccc(Nc2ccnc3cc(-c4ccncc4)ccc23)c1 [GW494601]"
measurement_label = "%Inh"
result_number = 88


Entry COc1ccc(Nc2ncc(C#N)c(Nc3ccccc3C(N)=O)n2)cc1N1CCN(C)CC1.Cl [GSK1558669] has what %Inh?
98.8

Entry Cc1cccc(Cn2ccn3c(=O)cc(N4CCOCC4)nc23)c1 [GSK2297542] has what %Inh?
0
